SUBJECT OF TEST: UniProt P05067
Sequence (P05067 whole entry): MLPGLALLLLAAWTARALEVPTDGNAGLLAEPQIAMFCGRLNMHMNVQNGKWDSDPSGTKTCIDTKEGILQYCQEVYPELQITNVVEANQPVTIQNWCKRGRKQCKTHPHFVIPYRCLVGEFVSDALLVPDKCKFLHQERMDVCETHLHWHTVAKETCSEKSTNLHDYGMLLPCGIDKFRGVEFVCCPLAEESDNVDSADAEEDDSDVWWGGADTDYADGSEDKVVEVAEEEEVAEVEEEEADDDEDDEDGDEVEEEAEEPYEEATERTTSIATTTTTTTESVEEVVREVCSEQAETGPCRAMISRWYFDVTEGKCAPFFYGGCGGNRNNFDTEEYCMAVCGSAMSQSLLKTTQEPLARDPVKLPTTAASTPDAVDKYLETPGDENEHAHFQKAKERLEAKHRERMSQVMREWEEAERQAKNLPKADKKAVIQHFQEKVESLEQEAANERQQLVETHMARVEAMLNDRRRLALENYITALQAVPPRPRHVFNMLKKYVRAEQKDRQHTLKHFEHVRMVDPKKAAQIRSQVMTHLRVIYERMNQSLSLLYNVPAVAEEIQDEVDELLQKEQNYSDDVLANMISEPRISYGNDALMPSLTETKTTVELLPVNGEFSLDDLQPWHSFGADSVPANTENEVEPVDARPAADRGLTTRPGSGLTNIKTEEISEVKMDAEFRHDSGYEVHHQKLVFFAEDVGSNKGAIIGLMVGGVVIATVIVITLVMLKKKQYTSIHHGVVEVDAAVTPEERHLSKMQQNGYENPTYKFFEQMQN
ASSAY READOUT: Ki (nM)
Reply numerically in nM, unit not repeated.

Inquiry: Ki for "CN(C)c1ccc(-c2cn3cc(CCF)ccc3n2)cc1" ?
Reply text: 177
